target: Carbonic anhydrase 9 (Homo sapiens, UniProt Q16790); experiment: Inhibition of human recombinant carbonic anhydrase 9 expressed in Escherichia coli pre-incubated for 15 mins by stopped-flow CO2 hydration assay
assay.endpoint: Ki (µM)
One number for each entry, in µM.

Solved cases (5 shown):
O=C(O)[C@@H]1CCCN(C(=S)S)C1	0.0413
O=C(O)C1CCCCN1C(=S)S (configuration not stated)	0.072
O=C(O)C1COCCN1C(=S)S (configuration not stated)	0.0067
OCCCCNC(=S)S	0.00097
O=C(O)C1CCN(C(=S)S)CC1	0.0779

Need Ki for each of these compounds.
1. O=C(CN1CCN(C(=S)S)CC1)NC1CCCCC1
2. OCCCNC(=S)S
3. S=C(S)NC1CN2CCC1CC2 (configuration not stated)
4. S=C(S)NCCc1ccccc1
5. O=C(O)C1CCCN(C(=S)S)C1 (configuration not stated)

1. 0.0799
2. 0.00091
3. 0.0935
4. 0.0251
5. 0.0671

# batch: return Ki for each of the 2 compounds below
1. S=C(S)N[C@@H]1CN2CCC1CC2
2. S=C(S)N[C@H]1CN2CCC1CC2

0.0824
0.0718
